- Tested on: DRAK1
- Construct: gene STK17A
pKd: −log10 of the molar value.
READOUT_TYPE: pKd

> print(dat)
                              line.notation  reported.measurement
1  C[C@@H]1CCCCN1c1cc(-c2ccc3c(N)n[nH]c3c2)nc(N)n1                  7.06

====

pKd: −log10 of the molar value.
Measured pKd on ACVR1 follows.
READOUT_TYPE: pKd

> print(dat)
                                   compound  readout.type  reported.measurement
1  Cn1ccc2ncnc(Oc3cccc(C(=O)Nc4ccccc4)c3)c21           pKd                < 5.00
2  COc1ccc(C2=C(Nc3cccc(C(=O)O)c3)C(=O)NC2=O)cc1 [SB-390765]           pKd                < 5.00

====

- Test system: CDK3
- MEASUREMENT_CONDITIONS: concentration: 1 μM, replicates: in singlicate; n = 1
READOUT_TYPE: %Inh (%)

> print(dat)
                                   compound  readout.type  unit.of.measure  reported.measurement
1  CC1=C(C(=O)Nc2cc3cn[nH]c3cc2F)C(c2ccc(C(F)(F)F)cc2)CC(=O)N1 (stereo not shown)          %Inh                %                    18
2  Cl.c1ccc(-c2n[nH]cc2-c2ccnc(-c3ccc(CN4CCOCC4)cc3)c2)nc1          %Inh                %                    46
3  COc1cc(Nc2nccc(N3CCC(NC(=O)Nc4cc(C)ccc4C)C3)n2)cc(OC)c1OC (stereo not shown)          %Inh                %                    15
4  CC(C)(C)c1ccc(C(=O)Nc2cn3cc(Cl)ccc3n2)cc1          %Inh                %                     0

====

- Test system: CAMK2A
- MEASUREMENT_CONDITIONS: concentration: 1 μM, replicates: in singlicate; n = 1
READOUT_TYPE: %Inh (%)

> print(dat)
                                   compound  reported.measurement
1  COc1cccc(NC(=O)NC2CCN(c3ccnc(Nc4ccc(F)cc4)n3)C2)c1 (centres unmarked)                     0
2  CS(=O)(=O)c1ccc(-c2nc3n(c2-c2ccncc2)CCC3)cc1                     0
3  Cn1ccc2ncnc(Oc3cccc(C(=O)Nc4ccccc4)c3)c21                     1
4  CC(C)(C)c1ccc(C(=O)Nc2cn3cc(-c4cccnc4)ccc3n2)cc1                     6
5  Cc1cc(N2Cc3ccccc3C2)nc(Nc2ccc(S(=O)(=O)N3CCOCC3)cc2)n1.Cl                     0

====

Below, each of the compounds is paired with its reported %Inh value.
- Tested on: AURKC
- MEASUREMENT_CONDITIONS: concentration: 1 μM, replicates: in singlicate; n = 1
READOUT_TYPE: %Inh

> print(dat)
                                    compound  experimental.target  reported.measurement
 1  O=C(Nc1n[nH]c2nc(-c3nccs3)c(Br)cc12)C1CC1                AURKC                   13%
 2  Cc1cccc(-c2nc(Nc3ccc4[nH]ncc4c3)c3ccccc3n2)n1                AURKC                   22%
 3  O=C(Nc1ccc2c(c1)OCO2)NC1CCN(c2ccnc(Nc3ccc(F)cc3)n2)C1 (stereo not shown)                AURKC                   52%
 4                CCn1c(-c2ccccn2)nc2cnccc21                AURKC                    7%
 5  COc1ccc2nc(-c3cccc(C)n3)nc(Nc3ccncc3)c2c1                AURKC                    6%
 6  Clc1cc(Cl)cc(Nc2ccnc(Nc3cc(Cl)cc(Cl)c3)n2)c1                AURKC                   13%
 7  Cn1ccc2ncnc(Oc3cccc(C(=O)Nc4ccccc4)c3)c21                AURKC                   26%
 8  CS(=O)(=O)c1ccc(-c2nc3n(c2-c2ccncc2)CCC3)cc1                AURKC                    0%
 9       Nc1nc(-c2nccs2)c(-c2ccnc3ccccc23)s1                AURKC                    0%
10  Cc1ccc(C(=O)Nc2ccc(Nc3ccnc4cc(-c5ccccn5)ccc34)cc2O)cc1.Cl                AURKC                 90.1%
11  Cc1c(O)cccc1Nc1ccnc2ccc(C(F)(F)F)cc12.Cl                AURKC                    0%
12  Cc1c(Cn2ccn3c(=O)cc(N4CCOCC4)nc23)cccc1C(F)(F)F                AURKC                    3%
13  Cc1cc(-c2ccc3c(c2)CC[C@@H](N[C@@H](C)c2ccccc2)C3)cnc1N.Cl                AURKC                   26%
14  COC(=O)c1c(-c2ccccc2)c2cc(C(=O)O)ccc2c(=O)n1Cc1ccccc1                AURKC                    0%
15  Cl.Oc1ccc(-c2nc(-c3ccccc3)[nH]c2-c2ccncc2)cc1                AURKC                    0%
16  Cc1cccc(-c2nc(-c3ccc(S(C)(=O)=O)cc3)sc2-c2ccnc(NCCc3ccccc3)c2)c1                AURKC                    0%
17  COc1cc2ncnc(Nc3ccc4nc(-c5ccccc5)[nH]c4c3)c2cc1OC.Cl                AURKC                   48%
18    Fc1cccc(COc2nnc(-c3ccc4c(c3)CCO4)o2)c1                AURKC                    0%
19  CN(C)CCN(C)C(=O)c1cc(-c2ccncc2)c(-c2ccc(Cl)c(O)c2)o1.Cl.Cl                AURKC                    0%
20                     NC(=O)c1nnc2ccccc2c1N                AURKC                   40%
21  COc1ccc(Nc2nccc(-c3cccc(NC(=O)c4cc5cc(F)ccc5[nH]4)c3)n2)cc1                AURKC                   66%
22              Nc1ncnc2[nH]c(-c3ccccc3)nc12                AURKC                   14%
23           Fc1cc(Cl)ccc1Nc1ccnc2cc(I)ccc12                AURKC                   41%
24  COc1ccc(Nc2nccc(NCCNC(=O)Nc3ccccc3F)n2)cc1                AURKC                   28%
25  COc1ccc(C2=C(Nc3cccc(C(=O)O)c3)C(=O)NC2=O)cc1                AURKC                    0%
26  Cl.O=C(Nc1cccc(-c2nn3ncccc3c2-c2ccnc(Nc3cccnc3)n2)c1)c1c(F)cccc1F                AURKC                   19%
27  C[C@@H]1CCCCN1c1cc(-c2ccc3c(N)n[nH]c3c2)nc(N)n1                AURKC                   14%
28  Cc1ccc(-c2cc(-c3c[nH]nc3-c3ccccn3)ccn2)cc1                AURKC                   10%
29                Cc1ccccc1-n1cnc2c(N)ncnc21                AURKC                    0%
30  O=S(=O)(c1ccc(-c2ccnc3[nH]ccc23)cc1)N1CCCC1                AURKC                   60%
31        Cc1cccc(-c2nc(C)cc(Nc3ccncc3)n2)n1                AURKC                   13%
32  CN1C(=O)C(Nc2ccc(Cl)c(C(=O)O)c2)=C(c2ccc(Cl)cc2)C1=O                AURKC                    5%
33     Cc1cccc(-c2cc(Nc3ccncc3)c3ccccc3n2)n1                AURKC                    1%
34  Cl.NC(=O)c1cccc(Nc2nccc(Nc3ccc(Oc4cccc(Cl)c4)c(Cl)c3)n2)c1                AURKC                   21%
35               CCn1c(-c2cccnc2O)nc2cnccc21                AURKC                    0%
36   O=C(Nc1ccccc1)Nc1cccc(Oc2ccc3nccn3n2)c1                AURKC                   26%
37  CS(=O)(=O)c1ccc(-c2c(-c3ncn[nH]3)sc(N3CCOCC3)c2C#N)cc1                AURKC                    2%
